# System: HET-1A
# Assay comment: Reduction in viability of human HET-1A cells after 6 hrs by fluorescence assay
# Type: cell-based
Quantity measured: Activity

COC(=O)C1=C(C)NC(C)=C(C(=O)OCCN(C)Cc2ccccc2)C1c1cccc([N+](=O)[O-])c1 (stereo unspecified) = Dose-dependent effect
CN1[C@@H]2CCC[C@H]1CC(NC(=O)c1nn(C)c3ccccc13)C2 (stereo partly specified) = Toxic
OC1(c2ccc(Cl)c(C(F)(F)F)c2)CCN(CCCC(c2ccc(F)cc2)c2ccc(F)cc2)CC1 = Dose-dependent effect
CN(C)CCCN1c2ccccc2Sc2ccccc21 = Dose-dependent effect
CC[C@H]1OC(=O)[C@H](C)[C@@H](O[C@H]2C[C@@](C)(OC)[C@@H](O)[C@H](C)O2)[C@H](C)[C@@H](O[C@@H]2O[C@H](C)C[C@H](N(C)C)[C@H]2O)[C@](C)(O)C[C@@H](C)[C@@H]2N[C@@H](COCCOC)O[C@H]([C@H]2C)[C@]1(C)O = Toxic

Quick check: Activity of O=C(Nc1ccc([N+](=O)[O-])cc1Cl)c1cc(Cl)ccc1O [NICLOSAMIDE] ?
Dose-dependent effect
